B1: TPR 5TU (parent)
chain: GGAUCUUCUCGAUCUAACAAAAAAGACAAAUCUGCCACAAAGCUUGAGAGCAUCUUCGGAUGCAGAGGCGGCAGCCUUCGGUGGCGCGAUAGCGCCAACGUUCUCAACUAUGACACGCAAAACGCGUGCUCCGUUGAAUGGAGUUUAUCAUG

- Variants of: B1
- assay: polymerase ribozyme fitness, log enrichment relative to wild type (log ratio); higher = more active; in vitro selection for triplet polymerase activity
This sample holds only a part of the variants without activity.
Label rule, in plain words: polymerase ribozyme fitness (log ratio) of -1 and up is TRUE, under -1 is FALSE.

Illustrative cases are given below, each with its answer.
input: Could you tell me if the measured polymerase ribozyme fitness (log ratio) of A28U G50A C85G reaches -1 or more?
output: FALSE

input: Could you tell me if the measured polymerase ribozyme fitness (log ratio) of U4C A22G G86A reaches -1 or more?
output: FALSE

input: Could you tell me if the measured polymerase ribozyme fitness (log ratio) of U31C U56A G58C A98U C149U reaches -1 or more?
output: TRUE

As a next step, examine the variant that follows.
input: Could you tell me if the measured polymerase ribozyme fitness (log ratio) of G11A U31A reaches -1 or more?
output: TRUE
